Assay: gradient 5% acetonitrile 3 min, to 50% in 2 min, to 85% in 15 min, held 3 min, 100 µL/min
Details: column: Zorbax Extend-C18 2.1 x 50 mm; eluents: water / acetonitrile, 0.1% formic acid
The threshold is inclusive: RP-LC retention time of exactly 800 s counts as yes; values below receive no.

>  <COMPOUND>
COc1ccc(-c2c(C(=O)Nc3ccccc3OC)nc3ccccn23)cc1

>  <CLASS LABEL>
yes

$$$$
>  <COMPOUND>
NC(=O)C1CCN(C(=O)CN2CCN(c3ccccc3F)CC2)CC1

>  <CLASS LABEL>
no

$$$$
>  <COMPOUND>
Cc1ccc(Nc2c(-c3nc(C)no3)cnc3nc(C)ccc23)c(C)c1

>  <CLASS LABEL>
yes

$$$$
>  <COMPOUND>
COC(=O)c1cc2c([nH]c1=O)CC(c1ccc(Cl)cc1)CC2=O (centres undefined)

>  <CLASS LABEL>
no

$$$$
>  <COMPOUND>
Cc1nnc(N2CCCC(C(=O)NCc3ccccc3)C2)c2nn(-c3ccc(Cl)cc3)c(C)c12 (centres undefined)

>  <CLASS LABEL>
no

$$$$
>  <COMPOUND>
CCOc1ccc(C(=O)N2CCN(c3cc(CC)n4cnnc4n3)CC2)cc1

>  <CLASS LABEL>
no

$$$$
>  <COMPOUND>
CNC(=O)c1ccc(-c2nc3cc(NS(=O)(=O)c4ccc(F)cc4F)ccc3n2C)cc1

>  <CLASS LABEL>
no

$$$$
>  <COMPOUND>
CCn1cnc(S(=O)(=O)N2CCCC(C(=O)N3CCN(c4ccccc4)CC3)C2)c1 (centres undefined)

>  <CLASS LABEL>
no

$$$$
>  <COMPOUND>
O=C(Nc1ccc(-n2cnnn2)cc1)c1ccc(N2CCCC2)nn1

>  <CLASS LABEL>
no

$$$$
>  <COMPOUND>
COc1ccc(OC)c(-c2cc(C(=O)NCC#CCN3CCc4ccccc4C3)[nH]n2)c1

>  <CLASS LABEL>
no

$$$$
>  <COMPOUND>
Cc1csc(-c2cc(S(=O)(=O)NC(C)(C)C)cn2CC(=O)N2CCCC2)n1

>  <CLASS LABEL>
yes

$$$$
>  <COMPOUND>
CCn1cnc2cc(-c3noc(CNC(=O)c4ccc(C)cc4)n3)ccc21

>  <CLASS LABEL>
no

$$$$
>  <COMPOUND>
FC(F)Sc1ccc(-c2cn3cc(Cl)ccc3n2)cc1

>  <CLASS LABEL>
yes

$$$$
>  <COMPOUND>
CCCN(CC1CCOC1)S(=O)(=O)c1cccc(C)c1 (centres undefined)

>  <CLASS LABEL>
yes

$$$$
>  <COMPOUND>
O=C(c1ccc(-c2csc(C3CC3)n2)cc1)N1CCN(c2ccccn2)CC1

>  <CLASS LABEL>
no

$$$$
>  <COMPOUND>
CCCCCn1c(=O)c2ccccc2n(Cc2nc(-c3ccc4c(c3)OCO4)no2)c1=O

>  <CLASS LABEL>
yes

$$$$
>  <COMPOUND>
CC(=O)N1CCCSc2ccc(S(=O)(=O)N3CCN(c4cc(Cl)ccc4C)CC3)cc21

>  <CLASS LABEL>
yes

$$$$
>  <COMPOUND>
CCc1noc(-c2cnc3nc(C)ccc3c2Nc2ccccc2OC)n1

>  <CLASS LABEL>
no

$$$$
>  <COMPOUND>
CC1CCN(c2cc(-n3cnc(C(=O)Nc4ccc5c(c4)OCO5)c3)ncn2)CC1

>  <CLASS LABEL>
yes

$$$$
>  <COMPOUND>
O=C(NCc1ccco1)C1CCN(c2cc(N3CCSCC3)ncn2)CC1

>  <CLASS LABEL>
no

$$$$
>  <COMPOUND>
COc1ccc(C(O)CN2CCN(c3ccc(F)cc3)CC2)cc1 (centres undefined)

>  <CLASS LABEL>
no

$$$$
>  <COMPOUND>
Cc1c(-c2noc(-c3ccccc3F)n2)nnn1Cc1ccccc1

>  <CLASS LABEL>
yes

$$$$
>  <COMPOUND>
Cc1cc(C)cc(NC(=O)C2CCN(S(=O)(=O)c3ccc(-c4noc(C5CC5)n4)cc3)CC2)c1

>  <CLASS LABEL>
yes

$$$$
>  <COMPOUND>
COc1ccccc1C(=O)Nc1nc(-c2ccc3c(c2)N(C)C(=O)CO3)cs1

>  <CLASS LABEL>
yes

$$$$
>  <COMPOUND>
COc1ccc(OC)c(CNC(=O)C2CCCN(c3cnc4nccnc4c3)C2)c1 (centres undefined)

>  <CLASS LABEL>
no

$$$$
>  <COMPOUND>
CCc1nc(-n2cccc2)sc1C(=O)Nc1ccc(C)cc1F

>  <CLASS LABEL>
yes

$$$$
>  <COMPOUND>
CCc1ccc(S(=O)(=O)N2CC(F)(F)C[C@H]2c2nnc(C)o2)cc1

>  <CLASS LABEL>
yes

$$$$
>  <COMPOUND>
Cc1noc(C2CCCCN2Cc2nc(-c3cccnc3)no2)n1 (centres undefined)

>  <CLASS LABEL>
no

$$$$
>  <COMPOUND>
O=C(CC1=CCCCC1)N1CCC(C2CCNC2)CC1 (centres undefined)

>  <CLASS LABEL>
no

$$$$
>  <COMPOUND>
COc1ccc(-c2nnc(-c3cccc(S(=O)(=O)N4CCC(C)CC4)c3)o2)cc1

>  <CLASS LABEL>
yes

$$$$
>  <COMPOUND>
CCCNC(=O)c1nn(-c2ccc(OC)cc2)c(OC)cc1=O

>  <CLASS LABEL>
no

$$$$
>  <COMPOUND>
Cn1cc(CN2CCC(C(=O)NCc3ccccc3)CC2)c2cc(Cl)ccc21

>  <CLASS LABEL>
no

$$$$
>  <COMPOUND>
O=C1CCCC(=O)C1C(=O)c1ccc(C(F)(F)F)cc1[N+](=O)[O-]

>  <CLASS LABEL>
yes

$$$$
>  <COMPOUND>
CC(C)C(=O)N1CCc2ccc(NC(=O)c3ccc(Cl)c(Cl)c3)cc2C1

>  <CLASS LABEL>
yes

$$$$
>  <COMPOUND>
COc1ccccc1-c1noc(Cn2c(=O)n(-c3ccccc3F)c(=O)c3sccc32)n1

>  <CLASS LABEL>
yes

$$$$

---

Below: a set of entries, each annotated with reported RP-LC retention time.
Assay: gradient 5% acetonitrile 3 min, to 50% in 2 min, to 85% in 15 min, held 3 min, 100 µL/min
Conditions: column: Zorbax Extend-C18 2.1 x 50 mm; eluents: water / acetonitrile, 0.1% formic acid

>  <MOLECULE>
Cc1ccn2c(NC(=O)c3cccs3)c(-c3ccccc3)nc2c1

>  <RP-LC retention time (s)>
633

$$$$
>  <MOLECULE>
COc1ccc(-c2nc3cnccn3c2Nc2ccccc2OC)cc1

>  <RP-LC retention time (s)>
863

$$$$
>  <MOLECULE>
COc1ccc2c(C)c(CCC(=O)N[C@@H](C(=O)O)C(C)C)c(=O)oc2c1C

>  <RP-LC retention time (s)>
746

$$$$
>  <MOLECULE>
Cc1cc(C)c(S(=O)(=O)N2CCCC2c2nc(-c3cccc(F)c3)no2)c(C)c1 (centres undefined)

>  <RP-LC retention time (s)>
1270

$$$$
>  <MOLECULE>
CCOc1ccc2nc(Nc3nc(C)cc(C(F)(F)F)n3)nc(C)c2c1

>  <RP-LC retention time (s)>
753

$$$$
>  <MOLECULE>
Cc1ccc(Nc2nc(C)cc3nn(CC(=O)NC4CCCC4)c(=O)n23)cc1

>  <RP-LC retention time (s)>
640

$$$$
>  <MOLECULE>
Cc1ccc2cc(CN3CCC4(CCC4O)CC3)c(=O)[nH]c2c1 (centres undefined)

>  <RP-LC retention time (s)>
590

$$$$
>  <MOLECULE>
O=C(NCc1cccs1)C1CCN(S(=O)(=O)c2cc(C(=O)N3CCOCC3)cs2)CC1

>  <RP-LC retention time (s)>
803

$$$$
>  <MOLECULE>
COc1ccc(-c2nc3cnccn3c2Nc2ccc(C)cc2C)cc1

>  <RP-LC retention time (s)>
971

$$$$
>  <MOLECULE>
CCN1C(=O)CCc2cc(NS(=O)(=O)c3cccc(C)c3)ccc21

>  <RP-LC retention time (s)>
788

$$$$
>  <MOLECULE>
CCOc1ccc(C2Cn3nnc(-c4nc(-c5ccccc5OC)no4)c3CO2)cc1 (centres undefined)

>  <RP-LC retention time (s)>
1090

$$$$
>  <MOLECULE>
Cc1ccc(Nc2c(-c3c(F)cccc3Cl)nc3ccc(C)cn23)cc1

>  <RP-LC retention time (s)>
773

$$$$
>  <MOLECULE>
COCCNC(=O)C1CCCN1S(=O)(=O)c1cc2c(cc1Cl)NC(=O)CO2 (centres undefined)

>  <RP-LC retention time (s)>
627

$$$$
>  <MOLECULE>
O=C(C1CCN(S(=O)(=O)c2cc(-c3noc(C4CCC4)n3)cs2)CC1)N1CCc2ccccc21

>  <RP-LC retention time (s)>
1150

$$$$
>  <MOLECULE>
COc1ccc(NC(=O)Cn2c(C)nc3c(sc4nc(-c5ccccc5)ccc43)c2=O)cc1OC

>  <RP-LC retention time (s)>
938

$$$$
>  <MOLECULE>
CC(C)c1cc(C(=O)Nc2ccc(Cl)cc2)no1

>  <RP-LC retention time (s)>
1080

$$$$
>  <MOLECULE>
Cc1cc(-c2nnc(C3CC3)o2)c(C)n1CC(=O)NC(C)c1ccccc1 (centres undefined)

>  <RP-LC retention time (s)>
790

$$$$
>  <MOLECULE>
COc1ccc(N2CCN(C(=O)c3csc(C(=O)NC4CC4)n3)CC2)cc1

>  <RP-LC retention time (s)>
700

$$$$
>  <MOLECULE>
Brc1ccc(Nc2nc(-c3ccc4c(c3)OCO4)cs2)nc1

>  <RP-LC retention time (s)>
1150

$$$$
>  <MOLECULE>
COc1ccc(-c2noc(Cc3nnc(-c4cccc(OC)c4)o3)n2)cc1

>  <RP-LC retention time (s)>
992

$$$$
>  <MOLECULE>
Cc1cccc(N2C(=O)CN(CC(C)C)[C@H]3CS(=O)(=O)C[C@H]32)c1

>  <RP-LC retention time (s)>
836

$$$$
>  <MOLECULE>
CCOc1ccc(NC(=O)N(C)Cc2nc3ccccc3c(=O)n2CCOC)cc1

>  <RP-LC retention time (s)>
811

$$$$
>  <MOLECULE>
Cn1nc(C(=O)N2CCCC2)c2c1CCN(C(=O)Nc1cccc(Br)c1)C2

>  <RP-LC retention time (s)>
804

$$$$
>  <MOLECULE>
COC(=O)c1ccc(Cl)cc1NC(=O)N1CCCn2nc(-c3cccnc3)cc2C1

>  <RP-LC retention time (s)>
758

$$$$
>  <MOLECULE>
CC1CCN(C(=O)C2CC(=O)N(CCc3c[nH]c4ccc(Cl)cc34)C2)CC1 (centres undefined)

>  <RP-LC retention time (s)>
855

$$$$
>  <MOLECULE>
CCn1ccc2cc(S(=O)(=O)N3CCC(C(=O)NCCCN4CCCC(C)C4)CC3)ccc21 (centres undefined)

>  <RP-LC retention time (s)>
676

$$$$
>  <MOLECULE>
Cc1ccc(NC(=O)N2CCN(c3nc4ccccc4nc3C(F)(F)F)CC2)cc1F

>  <RP-LC retention time (s)>
1150

$$$$
>  <MOLECULE>
Cc1noc(C)c1S(=O)(=O)N1CCC(n2nc(-c3ccccc3)nc2C)C1 (centres undefined)

>  <RP-LC retention time (s)>
806

$$$$
>  <MOLECULE>
CCNC(=O)Nc1ccc(OCC(=O)NC(C)c2ccc(OC)cc2)nc1 (centres undefined)

>  <RP-LC retention time (s)>
701

$$$$
>  <MOLECULE>
COc1ncccc1CNC(=O)Cc1cccnc1

>  <RP-LC retention time (s)>
538

$$$$
>  <MOLECULE>
Cc1cc(OCC(=O)Nc2cccc(C)c2C)nc(N2CCN(c3ccccc3)CC2)n1

>  <RP-LC retention time (s)>
885

$$$$
>  <MOLECULE>
Cc1cccc2nnc(N3CCCC(C(=O)N4CCN(c5ccccc5)CC4)C3)n12 (centres undefined)

>  <RP-LC retention time (s)>
614

$$$$
>  <MOLECULE>
COc1ccc(CC(=O)N2CCn3c(C)nnc3C2)cc1OC

>  <RP-LC retention time (s)>
579

$$$$
>  <MOLECULE>
Cc1cc(C(=O)Nc2ccc3nc(N4CCN(C)CC4)sc3c2)on1

>  <RP-LC retention time (s)>
544

$$$$
>  <MOLECULE>
COc1ccc(-n2cc(C(=O)N3CCC(C(N)=O)CC3)nn2)cc1

>  <RP-LC retention time (s)>
612

$$$$
>  <MOLECULE>
Cc1ccc(C)c(NC(=O)Cn2c(C)nc3onc(C)c3c2=O)c1

>  <RP-LC retention time (s)>
800

$$$$
>  <MOLECULE>
CCn1nccc1C(=O)N1CCN(C(=O)N2C[C@H]3C[C@H](C2)[C@H]2CCCC(=O)N2C3)CC1

>  <RP-LC retention time (s)>
609

$$$$
>  <MOLECULE>
Cc1ccccc1NC(=O)Cn1c(N)nc(C)c(C)c1=O

>  <RP-LC retention time (s)>
596

$$$$
>  <MOLECULE>
NC(=O)c1ccc2c(c1)CCCN2C(=O)c1cccc(Cl)c1

>  <RP-LC retention time (s)>
724

$$$$
